These measurements were taken from the supplement of paper PMC10567573.

B1: ZNF511 (parent)
chain: EPLPVERDPAAGAAPFRFVARPVR

Variants of: B1
Assay: protein stability index of a GFP-peptide fusion (GPS, HEK-293T) (PSI 1-6); higher = more stable;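 further: lentivirally expressed fusions sorted by FACS into six bins by GFP to DsRed ratio, PSI derived from sequencing read proportions per bin multiplied by bin number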
Conditions: c terminus: a fixed tail appended
experimental-readout: protein stability index
Please reply with the value in numeric form only.

Examples with their reported protein stability index follow.
[[record]]
variant_label = "A11V"
experimental_readout = "protein stability index"
measured_value = 1.42

[[record]]
variant_label = "D8F"
experimental_readout = "protein stability index"
measured_value = 2.57

[[record]]
variant_label = "R17N"
experimental_readout = "protein stability index"
measured_value = 3.45

[[record]]
variant_label = "P15W"
experimental_readout = "protein stability index"
measured_value = 2.32

[[record]]
variant_label = "A20F"
experimental_readout = "protein stability index"
measured_value = 3.42

[[record]]
variant_label = "P4L"
experimental_readout = "protein stability index"
measured_value = 2.27


Ask: Request the reported protein stability index associated with R17E
Reply: 4.94

Ask: Reported protein stability index for R7D : what is it?
Reply: 2.9

Ask: Reported protein stability index, variant R17F : ____
Reply: 2.56

Ask: Name the recorded protein stability index for R7I .
Reply: 2.91

Ask: Dear colleague, I am looking for the recorded protein stability index of the following variant: A20D
Reply: 2.46
